Biological target: T1, formyl peptide receptor 2 (FPR2) (UniProt P25090 1-351, limits assumed)
T1 sequence (looked up): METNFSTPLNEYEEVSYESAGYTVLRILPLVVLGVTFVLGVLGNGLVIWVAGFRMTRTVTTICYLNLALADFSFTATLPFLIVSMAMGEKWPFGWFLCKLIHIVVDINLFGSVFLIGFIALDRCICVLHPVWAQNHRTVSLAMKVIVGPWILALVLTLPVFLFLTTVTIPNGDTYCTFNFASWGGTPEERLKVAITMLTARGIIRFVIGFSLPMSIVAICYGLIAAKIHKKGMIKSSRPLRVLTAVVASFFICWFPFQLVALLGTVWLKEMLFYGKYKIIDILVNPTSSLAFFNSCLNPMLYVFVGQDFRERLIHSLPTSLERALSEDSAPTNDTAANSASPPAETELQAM
Test: cell-based or functional assay
Each entry below lists one item and its recorded EC50 for [Ca2+] value.

Known results for binders:
IKYKPM (HELM PEPTIDE1{[CCCC(=O)[*:2]].I.K.Y.K.P.[dM].[am]}$$$$V2.0; SMILES CCCC(=O)N[C@H](C(=O)N[C@@H](CCCCN)C(=O)N[C@@H](Cc1ccc(O)cc1)C(=O)N[C@@H](CCCCN)C(=O)N1CCC[C@H]1C(=O)N[C@H](CCSC)C(N)=O)[C@@H](C)CC) [peptide of SEQ ID NO 144] :: < 10 nM
PMRYKPM (HELM PEPTIDE1{[CCCCCCCC(=O)[*:2]].P.M.R.Y.K.P.[dM].[am]}$$$$V2.0; SMILES CCCCCCCC(=O)N1CCC[C@H]1C(=O)N[C@@H](CCSC)C(=O)N[C@@H](CCCNC(=N)N)C(=O)N[C@@H](Cc1ccc(O)cc1)C(=O)N[C@@H](CCCCN)C(=O)N1CCC[C@H]1C(=O)N[C@H](CCSC)C(N)=O) [peptide of SEQ ID NO 65] :: < 10 nM

IKYKVM (HELM PEPTIDE1{I.K.Y.K.V.[dM].[am]}$$$$V2.0; N-terminus assumed; SMILES CC[C@H](C)[C@H](N)C(=O)N[C@@H](CCCCN)C(=O)N[C@@H](Cc1ccc(O)cc1)C(=O)N[C@@H](CCCCN)C(=O)N[C@H](C(=O)N[C@H](CCSC)C(N)=O)C(C)C) [peptide of SEQ ID NO 134] yielded EC50 for [Ca2+] of < 10 nM
